// provenance: patent US20190248902A1

Expression Normalization to mAb 65C12: recorded values
Target: T1, human ASGR-1 (wild type) (human, UniProt P07306 1-291)
T1 construct: also called wt ASGR1; huASGR-1
T1 sequence: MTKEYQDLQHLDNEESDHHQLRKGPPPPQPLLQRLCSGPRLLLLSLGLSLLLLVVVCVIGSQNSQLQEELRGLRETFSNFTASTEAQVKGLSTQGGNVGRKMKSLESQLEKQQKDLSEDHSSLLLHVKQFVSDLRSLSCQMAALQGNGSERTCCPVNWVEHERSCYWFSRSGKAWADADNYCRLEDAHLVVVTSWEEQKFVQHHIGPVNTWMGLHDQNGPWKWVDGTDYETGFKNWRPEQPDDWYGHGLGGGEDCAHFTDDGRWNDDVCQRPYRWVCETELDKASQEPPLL
Experiment: FACS ratio: 65C12 geomean / this mAb geomean
Answer using only a numeral; do not append any unit.

>>> valuemeasured("147E9 (antibody, V domains shown, mAb) VH: EVQLVESGGGLVQPGGSLRLSCAASGFTFSSYSMNWVRQAPGKGLEWVSSISGRNTTIYYADSVKGRFTISRDNAKNSLYLQMNSLRDEDTAVYYCSRDRGSCWGQGTLVTVSS VL: DIQMTQSPSSLSASVGDRVTITCRASQDINNYLAWFQQKPGKAPKSLIVAASSLQSGVPSKFSGSGSGTDFTLTISSLQPEDFATYYCQQYNSYPLTFGGGTKVEIK")
1.4
>>> valuemeasured("29E2 (antibody, V domains shown, mAb) VH: QVQLVESGGGVVQPGRSLRLSCAASGFTFSNCVMHWVRQAPGKGLEWVAVIWYDGSNKYYADSVKGRITISRDNSKNTLYLQMNSLRAEDTAVYYCAREEYSSGWYDYGMDVWGQGTTVTVSS VL: DIQMTQSPSSLSASVGDRVTITCRASQAIRNDLGWYQQRPGKAPKRLIYAASSLQSGVPSRFSGSGSGTEFILTISSLQPEDFATYYCLQHYNYPRSFGQGTKLEIK")
2.18

Now for the binder whose Expression Normalization to mAb 65C12 we want.
State the recorded Expression Normalization to mAb 65C12 for this entry: 176H4 (antibody, V domains shown, mAb) VH: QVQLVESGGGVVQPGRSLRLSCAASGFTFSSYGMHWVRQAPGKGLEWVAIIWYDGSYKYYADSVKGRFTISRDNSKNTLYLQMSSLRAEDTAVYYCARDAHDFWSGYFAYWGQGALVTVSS VL: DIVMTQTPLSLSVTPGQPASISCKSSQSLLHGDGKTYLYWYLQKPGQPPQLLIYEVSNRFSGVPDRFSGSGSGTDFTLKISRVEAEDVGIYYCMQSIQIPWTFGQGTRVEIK 1.67
